Measured MIC, listed per entry for reference.
# System: Staphylococcus aureus X1.1
# assay: MIC, standard agar-dilution assay
# Format: cell-based
# recorded conditions: agar-dilution; Staphylococcus aureus X1.1; read-out: MIC
Give the value in µg/mL but do not write µg/mL after it.

>  <compound>
CCC1OC(=O)CC(O)C(C)C(OC2OC(C)C(O)C(N(C)C)C2O)C(CCN2C(=O)c3ccccc3C2=O)CC(C)C(=O)C=CC(C)=CC1CO (stereo not shown) [Compound 6, 20-N-Phthalimido-20-deoxy-20-dihydro-OMT]

>  <tested system>
Staphylococcus aureus X1.1

>  <MIC (µg/mL)>
4

$$$$
>  <compound>
CCC1OC(=O)CC(O)C(C)C(OC2OC(C)C(O)C(N(C)C)C2O)C(CCNC)CC(C)C(=O)C=CC(C)=CC1CO (stereo not shown) [Compound 3, 20-N-Methylamino-20-deoxy-20-dihydro-OMT]

>  <tested system>
Staphylococcus aureus X1.1

>  <MIC (µg/mL)>
32

$$$$
>  <compound>
CCC1OC(=O)CC(O)C(C)C(OC2OC(C)C(OC3CC(C)(O)C(O)C(C)O3)C(N(C)C)C2O)C(CCNCc2ccccc2)CC(C)C(=O)C=CC(C)=CC1C (stereo not shown)

>  <tested system>
Staphylococcus aureus X1.1

>  <MIC (µg/mL)>
4

$$$$

Switching to the query record.
Q: Which MIC reading was recorded for the compound CCC1OC(=O)CC(O)C(C)C(OC2OC(C)C(OC3CC(C)(O)C(O)C(C)O3)C(N(C)C)C2O)C(CCNCCc2ccccc2)CC(C)C(=O)C=CC(C)=CC1CO (stereo not shown) ?
A: 16

* * *

# Tested on: Staphylococcus epidermidis EPI1
# assay: microbe, parasite or virus in culture
# Assay type: cell-based
# recorded conditions: agar-dilution; Staphylococcus epidermidis EPI1; read-out: MIC
# Procedure: The MIC's in Table II were determined by standard agar-dilution assays. The MIC's in Table III were obtained using a conventional broth-dilution microtiter test.
measured property: log10(MIC) (log10 of the value in µg/mL)
Use the decimal logarithm of MIC (µg/mL).

>  <compound>
CCC1CC(C)C(=O)C=CC(C)=CC(CSc2ccccc2)C(CC)OC(=O)CC(O)C(C)C1OC1OC(C)C(O)C(N(C)C)C1O (stereo not shown)

>  <quantitative readout>
-0.30

$$$$

Q: Which log10(MIC) is reported for this compound? CCC1OC(=O)CC(O)C(C)C(OC2OC(C)C(OC3CC(C)(O)C(O)C(C)O3)C(N(C)C)C2O)C(CCN2C(=O)c3ccccc3C2=O)CC(C)C(=O)C=CC(C)=CC1C (stereo not shown)
A: 1.81

Q: Item: CCC1OC(=O)CC(O)C(C)C(OC2OC(C)C(O)C(N(C)C)C2O)C(CCN(C)C)CC(C)C(=O)C=CC(C)=CC1CO (stereo not shown)
A: 1.20

Q: Moving on to the next compound: CCC1OC(=O)CC(O)C(C)C(OC2OC(C)C(OC3CC(C)(O)C(O)C(C)O3)C(N(C)C)C2O)C(CCNCCc2ccccc2)CC(C)C(=O)C=CC(C)=CC1CO (stereo not shown)
A: 1.20

Q: Also, CCC1OC(=O)CC(O)C(C)C(OC2OC(C)C(OC3CC(C)(O)C(O)C(C)O3)C(N(C)C)C2O)C(CCNCc2ccccc2)CC(C)C(=O)C=CC(C)=CC1C (stereo not shown) please.
A: 0.60

Q: How about CCC1OC(=O)CC(O)C(C)C(OC2OC(C)C(OC3CC(C)(O)C(O)C(C)O3)C(N(C)C)C2O)C(CCN2C(=O)c3ccccc3C2=O)CC(C)C(=O)C=CC(C)=CC1CO (stereo not shown) [Compound 17, 20-N-Phthalimido-20-deoxy-20-dihydro-DMT] ?
A: 1.51

Q: Consider next the compound CCC1OC(=O)CC(O)C(C)C(OC2OC(C)C(O)C(N(C)C)C2O)C(CCNC)CC(C)C(=O)C=CC(C)=CC1CO (stereo not shown) [Compound 3, 20-N-Methylamino-20-deoxy-20-dihydro-OMT] in the same way.
A: 1.51

Data origin: patent US4468511A
